Reported Percent Effect by item:
Tested on: Wolbachia pipientis
Assay: Anti-Wolbachia Cell-Based Screen
Type: functional
Set-up: scale not given: in the data most compounds retested in dose-response had high values
Settings: 5 µM
In all, about 48,000 compounds went through this assay and about 13,000 (27%) showed an effect of 50% or more. The list shows a part of the results.

| Molecule | Units of measure | Percent Effect |
| --- | --- | --- |
| CCSCCNC(=O)c1ccc(S(=O)(=O)N2C[C@@H]3C[C@H]2CN3)cc1 | % | -8.721 |
| COC(=O)c1cccc(NS(=O)(=O)c2cnc(NC(C)=O)s2)c1 | % | 20.99 |
| CC(C)=CCCC1(C)C=Cc2c(cc(C)n(CC(=O)O)c2=O)O1 (stereo unspecified) | % | 107.4 |
| CC(C)(C)OC(=O)NCC(=O)NCc1ccc(Cl)s1 | % | 16.63 |
| CC[C@H]1N(Cc2ccco2)CCC[C@]12CCC(=O)N2C | % | 102.2 |
| Cc1cc(C2CCCN(CCCS(=O)(=O)c3ccccc3)C2)n[nH]1 (stereo unspecified) | % | -3.796 |
| Cc1cc(C)c2nc(CN3C[C@H](CCO)[C@@H](N)C3)cc(O)c2c1 | % | -3.113 |
| COc1cnc(N2CC(N3CCOCC3)C2)nc1-c1ccnn1C | % | -5.867 |
| COC1COC2(CCN(Cc3ccco3)CC2)C1 (stereo unspecified) | % | -9.93 |
| COC[C@@H]1CN(C)C(=O)[C@@H]2CCN(Cc3ccco3)CC[C@H]12 | % | -1.368 |
| CC[C@@H]1N(Cc2ccco2)CCC[C@]12CCC(=O)N2C.O=C(O)C(F)(F)F | % | 98.83 |

----------
Here, each record is paired with measured Percent Effect data.
Test system: Wolbachia pipientis
Experiment: Anti-Wolbachia Cell-Based Screen
Assay type: functional
Set-up: scale not given: in the data most compounds retested in dose-response had high values
Conditions: 5 µM
The campaign covered roughly 48,000 compounds. About 13,000 (27%) showed an effect of 50% or more. This is one part of the list.

| Molecule | Percent Effect / % |
| --- | --- |
| Cc1nc(NC(=O)CN2CCc3c(nc(C(C)C)n3C)C2)sc1C | -4.598 |
| Cc1ccc(N2CCCc3sc(C(=O)NCc4ccc(C)o4)nc32)nn1 | -0.9915 |
| O=C(c1nc2c(s1)CCCN2CC1CC1)N1CCOCC1 | 13.28 |
| O=C(NCC1CCCO1)c1nc2c(s1)CCCN2CC1CC1 (stereo not given) | 97.2 |
| Cc1ccc(N2CCCc3sc(C(=O)NCC4CCCO4)nc32)nn1 (stereo not given) | 101.4 |
| O=c1[nH]c2cc(S(=O)(=O)N3CCC(c4ccsc4)CC3)ccc2o1 | 12.73 |
| O=C(NCc1cccnc1)c1nc2c(s1)CCCN2c1ncccn1 | -3.859 |
| FC(F)(F)c1n[nH]c2c1CN(Cc1cn3ccccc3n1)CC2 | 10.05 |
| O=C(c1nc2c(s1)CCCN2CC1CC1)N1CCCC1 | 21.73 |
| CC(CNC(=O)Nc1ccc(N(C)C)nc1)Cn1cccn1 (stereo not given) | 10.01 |
| CN(C)C(C(=O)N1CCCC1)c1ccccc1F (stereo not given) | 1.504 |
| Cc1cc(N2CCOC(C(F)(F)F)C2)nc(-c2ccccc2O)n1 (stereo not given) | 0.367 |
| CN1CCCc2sc(C(=O)NC3CC3)nc21 | -6.027 |
| N#CCCNC(=O)CN1CCC(c2cc3ccccc3[nH]2)CC1 | 7.04 |
| NCC1Cc2cc(F)cc(-c3cnccn3)c2O1 (stereo not given) | -7.505 |
| Cc1ccc(N2CCCc3sc(C(=O)NCCO)nc32)nn1 | -4.347 |
| O=C(NCC1CCCO1)c1nc2c(s1)CCCN2c1ncccn1 (stereo not given) | 95.9 |
| FC(F)(F)C1CN(c2nc(-c3ccccc3)no2)CCO1 (stereo not given) | 1.85 |
| CCCOC1CCCN(C(=O)c2ccnc(N3CCN(C)CC3)c2)C1 (stereo not given) | -2.412 |
| C=C(C)CN1CCC(Nc2nc(C)ns2)CC1 | 3.989 |
| CC(=O)N[C@@H]1CN(C2CCN(c3ccccc3F)CC2)C[C@H]1C(C)C | 33.97 |
| O=C(c1ccc(-n2cnnc2)cc1Cl)N1CCCC(O)(CO)CC1 (stereo not given) | 1.549 |
| CN(C)c1ccc(NC(=O)NCc2cccnc2N(C)C)cn1 | 100.5 |
| Cc1nc(NC(=O)CN2CCOC(Cn3cccn3)C2)sc1C (stereo not given) | -8.379 |
| Cc1nc(CNC(=O)Nc2ccc(N(C)C)nc2)sc1C | -4.03 |

----------
System: Wolbachia pipientis
Test: Anti-Wolbachia Cell-Based Screen
Format: functional
Parameters: scale not given: in the data most compounds retested in dose-response had high values
Settings: 5 µM
Hit rate of the full screen: of about 48,000 compounds, about 13,000 (27%) showed an effect of 50% or more. This is one part of the list.
Entries and their measured Percent Effect follow.

| Compound | Target entity | Percent Effect |
| --- | --- | --- |
| O=C(CCc1ccco1)NS(=O)(=O)Cc1ccon1 | Wolbachia pipientis | -7.253% |
| COCc1cc(N2C[C@@H](C)[C@](O)(C3CC3)C2)ncn1 | Wolbachia pipientis | -1.024% |
| CC1(C)O[C@@](C)([C@H]2CC3(CCN(c4cnccn4)CC3)CO2)CC[C@@H]1O | Wolbachia pipientis | 106.3% |
| CCN1Cc2cc3c(cc2NCCC1=O)OCO3 | Wolbachia pipientis | 124.2% |
| CC(C)[C@@H]1CN(C2CCN(Cc3ccccc3)CC2)C[C@H]1NS(C)(=O)=O | Wolbachia pipientis | 57.6% |
| COc1nccnc1N1CCN(Cc2ccc3c(c2)OCO3)C(=O)C1 | Wolbachia pipientis | -4.11% |
| c1ccc(Cc2nc(C3CC3)nn2-c2ccc3c(c2)OCCO3)nc1 | Wolbachia pipientis | 5.106% |
| CC(C)[C@H]1CN(C2Cc3ccccc3C2)C[C@@H]1NS(=O)(=O)N(C)C | Wolbachia pipientis | -3.523% |
| CN(CC(=O)N1CCC(Cc2cccc(C(N)=O)c2)C1)C1CCCC1 (stereo not drawn) | Wolbachia pipientis | -18.46% |
| CC(C)(C)CN1Cc2cc3c(cc2NCCC1=O)OCO3 | Wolbachia pipientis | 93.04% |
| CCn1nnc2c1C(COC)CN(C(=O)COc1ccccc1)C2 (stereo not drawn) | Wolbachia pipientis | -1.685% |
| CS(=O)(=O)N[C@H]1CN(CCOCc2ccccc2)C[C@@H]1C1CC1 | Wolbachia pipientis | -6.261% |
| O=C([C@H]1C[C@H]2[C@H](CCN2Cc2cccs2)O1)N1CCOCC1 | Wolbachia pipientis | 91.43% |
| O=C1NCCN(CC2CC2)C12CCN(Cc1ccc3c(c1)OCO3)CC2 | Wolbachia pipientis | -10.73% |
| O=C(c1ccc2ccccc2c1)C1CCCN(C(=O)Cn2cnnn2)C1 (stereo not drawn) | Wolbachia pipientis | -17.21% |
| CN(C)C(=O)CO[C@H]1CO[C@@]2(CCN(S(C)(=O)=O)C2)C1 | Wolbachia pipientis | -10.41% |
| Cc1noc(C(C)N2CCN(c3ccc(C#N)cn3)CC2)n1 (stereo not drawn) | Wolbachia pipientis | 146.7% |
| Cc1noc(C2CCN(C(C)c3nc(C(C)(C)C)no3)CC2)n1 (stereo not drawn) | Wolbachia pipientis | 4.561% |
| CS(=O)(=O)N[C@@H]1CN(Cc2ccc3ccccc3c2)C[C@H]1O | Wolbachia pipientis | 117% |
| CS(=O)(=O)N[C@@H]1CN(Cc2ccccc2)C[C@H]1O | Wolbachia pipientis | 118.1% |
| CCc1noc(C(C)N2CCN(c3ncnc4sccc34)CC2)n1 (stereo not drawn) | Wolbachia pipientis | -87.61% |
| Cc1cc(CN2CCC3(CC2)CC(C(=O)O)N(C(=O)C2CC2)C3)oc1C (stereo not drawn) | Wolbachia pipientis | -10.16% |
| CCC[C@@H]1CN(C(=O)c2cc3ccccc3s2)C[C@H]1NS(C)(=O)=O | Wolbachia pipientis | -8.95% |

----------
Tested on: Wolbachia pipientis
Assay: Anti-Wolbachia Cell-Based Screen
Assay type: functional
Design: scale not given: in the data most compounds retested in dose-response had high values
Settings: 5 µM
About 13,000 (27%) of roughly 48,000 compounds showed an effect of 50% or more. The list shows a part of the results.
In this section we review reported Percent Effect values for a set of compounds.

| Compound | Percent Effect / % |
| --- | --- |
| N#Cc1cccc(N2CCC(CO)(CCc3ccccc3)CC2)n1 | -13.62 |
| N#Cc1cccc(C(=O)N2C[C@H](CO)C[C@H](CN3CCCC3)C2)c1 | -1.985 |
| Cc1cccc(-c2nccn2-c2cccc(CC(=O)O)c2)n1 | -5.138 |
| CCC(c1nc(C(C)C)nn1-c1ccncc1C)n1cccn1 (centres undefined) | -1.289 |
| CS(=O)(=O)N1CCCC12CCCN(C(=O)c1ccc3[nH]ccc3c1)C2 (centres undefined) | 11.97 |
| c1csc(CN2CCC3(CC2)COCCN3CC2CC2)n1 | -11.56 |
| COc1ccc(OCc2nccc(-c3cc(C(=O)O)ccn3)n2)cc1 | -32.77 |
| N#Cc1ccc(C(=O)N2C[C@@H](CN3CCCC3)C[C@H](CO)C2)cc1 | 5.863 |
| CC(C)C1SCC(=O)Nc2c1cnn2-c1ccc(F)cc1 (centres undefined) | 81.09 |
| CCN(CCc1nc2cc(C)ccc2[nH]1)C(=O)COC | 16.32 |
| COCC(=O)N1CCC2(CC1)COCCN2CCN(C)C.O=C(O)C(F)(F)F.O=C(O)C(F)(F)F | -13.01 |
| O=C(Nc1nncs1)N(Cc1cccc(O)c1)C1CC1 | -1.611 |
| NC(=O)CCNC(=O)Cc1cccc(I)c1 | -0.109 |
| Cn1c(C(F)(F)F)nn(CCNC(=O)NCc2ccccc2)c1=O | -13.86 |
| CC1(C)CN(C(=O)c2ccccc2-n2cncn2)CC1(C)O (centres undefined) | -36.51 |
| CC(C)(C)S(=O)(=O)c1ccc(N2CCN(c3ccccn3)CC2)nn1 | 14.84 |
| CN(C)c1cccc(C(=O)N2CCCSCC2CN2CCCC2)c1 (centres undefined) | 112.4 |
| Cc1cccc(C(=O)N2CCCSCC2CN2CCCC2)c1 (centres undefined) | 114.9 |
| CC(C)c1cnc(CN2CCCS2(=O)=O)o1 | 3.272 |
| O=C(c1ccc2c(c1)OCO2)N1CCCSCC1CN1CCCC1 (centres undefined) | 1.32 |
| N#Cc1ccc(C(=O)N2CCCSCC2CN2CCCC2)cc1 (centres undefined) | 107.8 |
| CN(Cc1csc(-c2ccccc2)n1)C(=O)CCn1ccccc1=O | -32.35 |
| CCN1CCOCC12CCN(C(=O)C1CCCC1)CC2.O=C(O)C(F)(F)F | 72.95 |
| CC(C)n1[nH]c(=O)c2c1NC(=O)CSC2C1CCCCC1 (centres undefined) | -15.8 |
